The measured values listed here are drawn from ChEMBL document CHEMBL1759867.

Target sequence: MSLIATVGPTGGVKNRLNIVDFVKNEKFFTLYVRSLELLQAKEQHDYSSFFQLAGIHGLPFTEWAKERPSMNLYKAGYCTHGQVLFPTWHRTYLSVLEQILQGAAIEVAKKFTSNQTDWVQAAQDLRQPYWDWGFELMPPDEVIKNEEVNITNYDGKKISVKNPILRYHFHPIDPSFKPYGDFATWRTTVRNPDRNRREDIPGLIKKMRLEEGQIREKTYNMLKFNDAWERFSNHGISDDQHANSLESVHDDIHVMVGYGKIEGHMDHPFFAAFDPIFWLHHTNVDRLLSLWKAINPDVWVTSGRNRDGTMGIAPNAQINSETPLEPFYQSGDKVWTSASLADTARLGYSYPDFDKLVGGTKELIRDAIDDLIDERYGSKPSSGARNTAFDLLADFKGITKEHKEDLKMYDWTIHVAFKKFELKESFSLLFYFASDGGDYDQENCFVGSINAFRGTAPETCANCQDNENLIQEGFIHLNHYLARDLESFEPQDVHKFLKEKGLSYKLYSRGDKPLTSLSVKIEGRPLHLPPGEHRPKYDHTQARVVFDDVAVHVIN
observedProperty: IC50 (mM)

[1] O=C1NC(=S)S/C1=C\c1ccc(O)cc1
[2] COc1cc(C2NC(=S)NC(C)=C2C(C)=O)ccc1O (configuration not stated)
Query: Of 1 and 2 , whose reported IC50 is the larger number? Refer to your chosen entry by its label in the reply.
Reply: 2
